measurement notes: Toxicity liver stage against HepG2, at 10uM
Format: cell-based
Set-up: test concentration 10 uM, cell line HepG2-A16-CD81EGFP
run parameters: human, HepG2-A16-CD81EGFP cells; read-out: INHIBITION
Catalogue of cytotoxicity at 10 µM values
# value in %; strip the unit string

A selection of reference data follows.
{"molecule": "CCCNC(=O)NCc1cccnc1OC", "experimental result": 4.6}
{"molecule": "CN(C)C(=O)CCC(=O)N1CCC2(CC1)COC2", "experimental result": 2.05}
{"molecule": "CCOc1ncccc1NC(=O)c1cc2c(s1)CCC2", "experimental result": -15}
{"molecule": "COCc1cccc(CNc2cnn(C(C)(C)C)c(=O)c2Cl)c1", "experimental result": 59.2}
{"molecule": "Cc1cnn(C2CN(CC(=O)N(C)Cc3ccc(C)o3)C2)c1", "experimental result": -15.9}
{"molecule": "CCN1CCCC1Cn1ccc2ccc(C(=O)OC)cc2c1=O (stereo unspecified)", "experimental result": -7.86}

Returns the measured cytotoxicity at 10 µM for the input molecule. Input: NC(=O)C1CCN(C(C(=O)O)c2ccc(Cl)c(C(F)(F)F)c2)CC1 (stereo unspecified) -107

Returns the measured cytotoxicity at 10 µM for the input molecule. Input: CS(=O)(=O)N1CCN(C(=O)c2cc(-c3ccc(Br)s3)n[nH]2)CC1 -7.62

Returns the measured cytotoxicity at 10 µM for the input molecule. Input: CC(C)COC[C@H]1CC[C@H]2[C@H](CCN2C(=O)c2ccncc2F)O1 -0.171

Returns the measured cytotoxicity at 10 µM for the input molecule. Input: O=C(c1ccc[nH]1)N1CCc2c(COCC3CC3)cncc2C1 5.71

Returns the measured cytotoxicity at 10 µM for the input molecule. Input: O=C(CCC1CCCO1)N1CCc2nc(-c3cnccn3)nc(O)c2C1 (stereo unspecified) -20.3
